- Tested on: LN-229
- Test name: Antiproliferative activity against human LN229 cells by MTT assay
- Type: functional, cell-based
Measured parameter: IC50 (µM)

> print(dat)
               structure.as.smiles  measured.parameter  observed.result
1    COc1cc2cc3c(N)n[nH]c3nc2cc1OC                IC50               26
2          Nc1[nH]nc2nc3ccccc3cc12                IC50              7.8
3      Cc1ccc2[nH]c3nnc(N)c-3cc2c1                IC50             61.2
4  Nc1n[nH]c2nc3c(ccc4ccccc43)cc12                IC50             54.3
5      COc1ccc2nc3[nH]nc(N)c3cc2c1                IC50             93.7
6      Cc1cc2cc3c(N)[nH]nc3nc2cc1C                IC50             38.9
7      Nc1n[nH]c2nc3cc(Cl)ccc3cc12                IC50             58.6
8      COc1ccc2cc3c(N)n[nH]c3nc2c1                IC50              7.8

----------
Readings of pIC50 for the listed compounds
- Tested on: DU-145
- Test name: Antiproliferative activity against human DU145 cells by MTT assay
- Type: functional, cell-based
pIC50: −log10 of the molar value.
Measured parameter: pIC50

> print(dat)
               structure.as.smiles  observed.result
1          Nc1[nH]nc2nc3ccccc3cc12           < 4.00
2      COc1ccc2nc3[nH]nc(N)c3cc2c1             4.12
3  Nc1n[nH]c2nc3c(ccc4ccccc43)cc12           < 4.00
4      COc1ccc2cc3c(N)n[nH]c3nc2c1             4.27
5      Cc1cc2cc3c(N)[nH]nc3nc2cc1C           < 4.00
6    COc1cc2cc3c(N)n[nH]c3nc2cc1OC             4.13
7      Cc1ccc2[nH]c3nnc(N)c-3cc2c1           < 4.00
8      Nc1n[nH]c2nc3cc(Cl)ccc3cc12           < 4.00

----------
Measured pIC50, listed per entry for reference.
- Test system: HCT-116
- Test name: Antiproliferative activity against human HCT116 cells by MTT assay
- Format: functional, cell-based
pIC50: −log10 of the molar value.
Measured parameter: pIC50

> print(dat)
               structure.as.smiles  value.comparator  observed.result
1      COc1ccc2nc3[nH]nc(N)c3cc2c1                 =             4.24
2          Nc1[nH]nc2nc3ccccc3cc12                 =             4.17
3      Cc1cc2cc3c(N)[nH]nc3nc2cc1C                 <             4.00
4  Nc1n[nH]c2nc3c(ccc4ccccc43)cc12                 =             4.12
5      Cc1ccc2[nH]c3nnc(N)c-3cc2c1                 <             4.00
6      COc1ccc2cc3c(N)n[nH]c3nc2c1                 =             5.64
7    COc1cc2cc3c(N)n[nH]c3nc2cc1OC                 =             4.39
8      Nc1n[nH]c2nc3cc(Cl)ccc3cc12                 =             4.25
